Data origin: patent US20210261668A1

STUDY TARGET: T1, mouse NKG2D-Fc fusion protein (mouse; human, UniProt O54709 90-232)
T1 construct: extracellular domain; also called mouse recombinant NKG2D-Fc; recombinant mouse NKG2D-Fc; not shown: human IgG1 Fc domain
T1 sequence (looked up): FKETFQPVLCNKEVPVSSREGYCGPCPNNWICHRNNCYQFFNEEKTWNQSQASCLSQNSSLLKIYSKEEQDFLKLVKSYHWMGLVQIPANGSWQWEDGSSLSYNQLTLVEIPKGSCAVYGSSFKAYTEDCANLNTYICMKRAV
TEST METHOD NOTES: ELISA on coated NKG2D-Fc
VALUE TYPE: binding result

{"BINDER": "ADI-29404 (antibody, V domains shown, also called F04) VH: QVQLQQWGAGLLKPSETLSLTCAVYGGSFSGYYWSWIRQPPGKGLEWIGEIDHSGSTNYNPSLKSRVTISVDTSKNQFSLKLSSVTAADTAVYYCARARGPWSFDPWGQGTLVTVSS VL: DIQMTQSPSTLSASVGDRVTITCRASQSISSWLAWYQQKPGKAPKLLIYKASSLESGVPSRFSGSGSGTEFTLTISSLQPDDFATYYCEQYDSYPTFGGGTKVEIK", "READING": "binds"}
{"BINDER": "ADI-27740 (antibody, V domains shown, also called A40) VH: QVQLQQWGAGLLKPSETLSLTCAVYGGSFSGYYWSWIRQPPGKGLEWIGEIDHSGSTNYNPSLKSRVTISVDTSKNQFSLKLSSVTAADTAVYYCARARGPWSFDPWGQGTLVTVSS VL: DIQMTQSPSTLSASVGDRVTITCRASQSIGSWLAWYQQKPGKAPKLLIYKASSLESGVPSRFSGSGSGTEFTLTISSLQPDDFATYYCQQYHSFYTFGGGTKVEIK", "READING": "binds"}
{"BINDER": "ADI-29405 (antibody, V domains shown) VH: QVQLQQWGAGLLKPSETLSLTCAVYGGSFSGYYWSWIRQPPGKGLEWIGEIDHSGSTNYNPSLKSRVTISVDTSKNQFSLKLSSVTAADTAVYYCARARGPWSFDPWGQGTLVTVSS VL: DIQMTQSPSTLSASVGDRVTITCRASQSISSWLAWYQQKPGKAPKLLIYKASSLESGVPSRFSGSGSGTEFTLTISSLQPDDFATYYCQQYGSFPTFGGGTKVEIK", "READING": "binds"}
